Test: Biodistribution in SCID mice bearing AsPC-1 xenografts
Format: in vivo
Conditions: male, mouse, spleen, iv, total radioactivity, 4 h pi, Entresto+Lis, read-out: uptake in Spleen
Peptide text beside a SMILES is read from it. * marks the point of attachment. Palmitoyl = CCCCCCCCCCCCCCCC(=O)*; X1 = NCCNCC(CNCCN)C(=O)*
recorded-metric: tissue uptake at 4 h (%ID/g)
Number only, in %ID/g; omit the unit.

Assign tissue uptake at 4 h to the following record: CCCCCCCCCCCCCCCC(=O)NCCCC[C@H](NC(=O)C(CNCCN)CNCCN)C(=O)N[C@@H](CCCNC(=N)N)C(=O)N[C@@H](CCCNC(=N)N)C(=O)N1CCC[C@H]1C(=O)N[C@@H](Cc1ccc(O)cc1)C(=O)N[C@H](C(=O)N[C@@H](CC(C)C)C(=O)O)[C@@H](C)CC [[^99mTc]Tc-DT9, metal not drawn] (X1-K(Palmitoyl)RRPYIL-OH)
5.47

Value source: paper PMC10459693
